# particulars: 328.15 K; 25000 kPa; Liquid; Vibrating tube method
quantity-kind: mass density (kg/m3)
Write the answer as a number in kg/m3, unit excluded.

What the record says about CC(C)OC(C)C : mass density is 720.04

According to the records, this compound CCCOCCC displays mass density of 741.66

Measured mass density, CCCCCOCCCCC : 776.42

Per the records, this compound ( CCCCOCC ) has mass density equal to 743.64

Memo: CCOC(C)(C)C , reported mass density: 735.75

Item: CC(C)CCOCCC(C)C | mass density: 769.33

Note to self: mass density recorded for CCCCOC was 739.05

* * *

Exercise: state measured mass density for each of the molecules provided.
# particulars: 333.15 K; 10000 kPa; Liquid; Vibrating tube method
± gives the expanded uncertainty stated by the source.
Just the number plus its unit, please.

Sure, the documented mass density for CC(C)OC(C)C [diisopropyl ether] is 696.58 ± 0.39 kg/m3

The molecule identified as CCCCCOCCCCC [dipentyl ether] registered its mass density at 760.26 ± 0.36 kg/m3

Form: molecule = CCCCOC [butyl methyl ether] ; mass density = 717.74 ± 0.38 kg/m3

In plain terms, CCOC(C)(C)C [2-ethoxy-2-methylpropane] has a documented mass density of 713.35 ± 0.38 kg/m3

Quick note, mass density for CCCOCCC [dipropyl ether] landed at 721.03 ± 0.38 kg/m3

mass density reported for this molecule CC(C)CCOCCC(C)C [di-(3-methylbutyl) ether] : 752.39 ± 0.37 kg/m3

// recorded mass density for CCCCOCC [butyl ethyl ether] : 723.28 ± 0.38 kg/m3

* * *

# particulars: 318.15 K; 55000 kPa; Liquid; Vibrating tube method
quantity-kind: mass density (kg/m3)
Give the value in kg/m3 but do not write kg/m3 after it.

Measured mass density, CC(C)CCOCCC(C)C : 796.91

// mass density lookup, compound = CCCCOCC , result: 775.65

Reported mass density for CCCCOC was 772.16

Lab book: mass density of COC(C)(C)C noted as 769.63

// mass density value for CCCOCCC : 774.07

Just so you know, measured mass density for CC(C)OC(C)C came out at 755.41

Entry CCOC(C)(C)C , mass density reported as 769.98

GET /value?item= CCCCCOCCCCC &field=mass density returns 803.09

* * *

# particulars: 293.15 K; 60000 kPa; Liquid; Vibrating tube method
quantity-kind: mass density (kg/m3)
Answer with a number only, understood to be in kg/m3.

For CC(C)CCOCCC(C)C the compound record lists mass density as 815.48

// sample COC(C)(C)C , its mass density was 791.81

The measured mass density associated with CCCOCCC reads 795.56

// sample CC(C)OC(C)C , its mass density was 777.49

mass density recorded for this compound, CCOC(C)(C)C , is 791.91

Briefly, mass density measured for CCCCOCC : 796.96

Documented mass density of CCCCOC : 794.21

The compound CCCCCOCCCCC showed mass density equal to 821.67

* * *

# particulars: 318.15 K; 100 kPa; Liquid; Vibrating tube method
quantity-kind: mass density (kg/m3)
Give just the numeric value; kg/m3 need not be written.

Summary for this molecule, CCCCOCC : mass density is 725.44

Measured mass density of CCCCCOCCCCC : 762.76

Input CCOC(C)(C)C . Output mass density: 714.82

The molecule listed as COC(C)(C)C has a reported mass density of 713.84

For record CC(C)CCOCCC(C)C the listed mass density is 754.27

Sure, the documented mass density for CCCCOC is 720.1

For this molecule ( CC(C)OC(C)C ), measured mass density is 697.07

Entry CCCOCCC , mass density reported as 722.77
